- Procedure summary: Stability in human liver microsomes assessed as compound remaining at 1.5 uM in presence of NADPH measured after 5 mins by liquid chromatography/tandem mass spectrometric analysis
- Assay type: ADME, microsome
- Experimental conditions: read-out: Stability
Reported values of remaining at 5 min, 1.5 µM for individual entries
Quantity: remaining at 5 min, 1.5 µM (%)

1. O=C(N/C=C/c1nc(-c2cccc(F)c2)cs1)N1CCCCC1; 28
2. CC1CCCCN1C(=O)NCCc1nc(-c2cccc(F)c2)cs1 (centres undefined); 3.9
3. O=C(NCCc1nc(-c2ccc(F)c(F)c2)cs1)N1CCCCC1; 22
4. O=C(NCCc1nc(-c2ccc(F)cc2F)cs1)N1CCCCC1; 46
